Hey, just so you know, these numbers are from ChEMBL document CHEMBL4483862.

# IC90 per entry
- Test system: Plasmodium berghei
- protocol_summary: Luciferase/luciferin-expressing antifolate-resistant parasites were used to infect a culture of HepG2 cells that were pre-incubated with compounds. Infected hepatocytes emit light due to the luciferase reaction. Assay results are presented as the percent inhibition of light emission compared to control. […]
- Assay type: functional
- assay_conditions: sporozoite, read-out: LUCIFERASE INFECTION ASSAY - IC90

compound | IC90
CCOC(=O)c1c(-c2cccs2)csc1NC(=O)c1c(S)n(-c2ccccc2C)c2ccc(C)c[n+]12 | > 10 µM
COc1cc2c(cc1OC)C1(NCC2)C(=O)Nc2ccccc21 (stereo unspecified) | > 10 µM
Cn1c(Cl)cnc1CN1CCN(CC(=O)Nc2ccccc2Cl)CC1 | > 10 µM
COCCCn1c(Sc2ncnc3sc4c(c23)CCC4)nc2sc3c(c2c1=O)CCC3 | > 10 µM
COc1cc(-c2nc3ccc(NC(=O)c4c(C)noc4C)cn3n2)cc(OC)c1OC | > 10 µM
COc1ccc(-c2cnn3c(N)c(-c4cccc(Cl)c4)cnc23)cc1OC | > 8.67 µM

====

# IC50 per entry
- System: Plasmodium berghei
- protocol_summary: Luciferase/luciferin-expressing antifolate-resistant parasites were used to infect a culture of HepG2 cells that were pre-incubated with compounds. Infected hepatocytes emit light due to the luciferase reaction. Assay results are presented as the percent inhibition of light emission compared to control. […]
- Type: functional
- assay_conditions: sporozoite, read-out: LUCIFERASE INFECTION ASSAY - IC50

compound | IC50
O=C(CN1CCN(C(=O)C2COc3ccccc3O2)CC1)Nc1ccccc1-c1ccccc1 (stereo not given) | > 10 µM
CCOC(=O)c1cnn(-c2ccc(NC(=O)COc3ccccc3C#N)cc2)c1C(F)(F)F | > 10 µM
CSc1sc(Cl)c(-c2ccc(Cl)cc2)c1C#N | > 11 µM
Cc1cc(C(=O)Cn2cnc3ccc([N+](=O)[O-])cc3c2=O)c(C)n1CC1COc2ccccc2O1 (stereo not given) | > 10 µM
Cc1nn(-c2ccccc2)c2c1C(c1c[nH]c3ccccc13)N1C(=N2)C(N2CCN(c3ccc(F)cc3)CC2)=Nc2ccccc21 (stereo not given) | > 10 µM
OCc1ccc(-c2cnc3cnc(-c4ccc(Cl)cc4)cn23)cc1 | > 9.83 µM
CCOc1ccc(CN(CC)C(=O)c2ccc(=O)[nH]c2)cc1OC | > 10 µM
CC1CCC(NC(=O)c2ccc(S(=O)(=O)Nc3ccccc3)cc2)CC1 (stereo not given) | > 10 µM
O=[N+]([O-])c1ccc2nc3c(c(-c4ccccc4)c2c1)CSc1ccccc1-3 | > 10 µM
Cc1nn2c(=O)c(Cc3ccccc3Cl)c(C)[nH]c2c1-c1ccccc1 | 2.68 µM
Cc1ccc(/N=C/c2cc3ccccc3nc2Sc2ccc(C)cc2)cc1 | > 10 µM
Cc1nc(=O)c2c([nH]1)NC(=O)CC2c1cc(F)ccc1F (stereo not given) | > 11.3 µM
COC(=O)c1cc(C(=O)OC)cc(-n2c(C)cc(C(O)(C(=O)OC)C(F)(F)F)c2C)c1 (stereo not given) | > 10 µM
COc1cc(C(O)c2cc(C(F)(F)F)cc(C(F)(F)F)c2)cc(OC)c1OC (stereo not given) | 7.33 µM
NC(=O)C1CCN(c2nc(-c3cccs3)nc3sc4c(c23)CCCC4)CC1 | > 10 µM
CNc1nc2cnc(Nc3cccc(C(C)C)c3)cc2n1Cc1ccco1 | > 10 µM
N#CCCN(Cc1ccco1)C(=O)CSc1nc2ccccc2c(=O)n1-c1cccc(Cl)c1 | 7.35 µM
C=CCN(C(=O)c1ccccc1OCc1c(C)noc1C)c1nc2c(s1)CCCC2 | > 10 µM
CCCNC(=O)COC(=O)c1cc(Br)ccc1N | > 10 µM
Cc1cc(C(=O)COC(=O)C2=COCCO2)c(C)n1Cc1ccco1 | > 10 µM
CC(C)Oc1cccc(-c2cn3c(-c4ccccc4Cl)cnc3cn2)c1 | > 9.07 µM
Cc1ccc(-c2nnc(SCC(=O)N3c4ccccc4OCC3c3ccccc3)[nH]2)cc1 (stereo not given) | > 10 µM
O=C(CCN1C(=O)c2ccccc2C1=O)OCc1cc(=O)oc2cc(O)ccc12 | > 10 µM
Cc1ccsc1C(=O)OCC(=O)Nc1cc(C(C)(C)C)no1 | > 10 µM
CC(=O)N1CCC(C(=O)Nc2cc(C(F)(F)F)ccc2NC2CCCCC2)CC1 | > 10 µM
Cn1c(=O)oc2ccc(S(=O)(=O)Nc3ccc4c(c3)CCCC4)cc21 | > 9.21 µM
COc1ccc(-c2nc(C=C3C(=O)c4ccccc4C3=O)cs2)cc1 | > 10 µM
COc1ccc(OC)c(S(=O)(=O)N2[C@@H]3CC[C@@H](C3)[C@H]2c2nc3cccc(OCc4ccc(F)cc4)c3[nH]2)c1 | > 10 µM
Cc1ccc(C(=O)C(/C=N/N)=N/Nc2cc(Cl)cc(Cl)c2)cc1 | 9.09 µM
O=S(=O)(c1cc(C(F)(F)F)ccn1)c1cccs1 | > 11.3 µM
CC(OC(=O)c1cccc(Cl)c1N)C(=O)N(C(C)C)C(C)C (stereo not given) | > 10 µM
CCOC(=O)c1c(-c2ccccc2)csc1NC(=O)Cn1ncc(Cl)c(Cl)c1=O | 3.35 µM
C=CCNc1nc(Nc2ccc(OC)c(OC)c2)c2sc(-c3ccccc3)cc2n1 | 3.61 µM
O=C(NCc1ccccc1)c1cccc(C2(CNc3cccc(OC(F)(F)F)c3)CC2)c1 | > 10 µM
O=C(COC(=O)c1ccccc1NCCO)NC(=O)NCc1ccco1 | > 10 µM

====

- System: Plasmodium berghei
- protocol_summary: Luciferase/luciferin-expressing antifolate-resistant parasites were used to infect a culture of HepG2 cells that were pre-incubated with compounds. Infected hepatocytes emit light due to the luciferase reaction. Assay results are presented as the percent inhibition of light emission compared to control. […]
- Type: functional
- assay_conditions: sporozoite, read-out: LUCIFERASE INFECTION ASSAY - IC90
# IC90 per entry

compound | IC90
COc1ccc(NC(=O)C(c2ccccc2)N2CCN(C)CC2)cc1Cl (stereo not given) | > 10 µM
S=C(NCCc1csc2ccccc12)Nc1ccc(Cl)cc1 | > 9.51 µM
CCC1=C(C(=O)OC)C(c2c(F)cccc2F)NC(=S)N1c1ccc2c(c1)OCCO2 (stereo not given) | > 10 µM
O=C(CCOc1ccc(F)cc1)Nc1cc(Cl)cc(Cl)c1 | > 10.1 µM
Fc1ccc(Nc2nccc3nc(-c4ccccc4Cl)[nH]c23)cc1Cl | > 10 µM

====

- Test system: Plasmodium berghei
- protocol_summary: Luciferase/luciferin-expressing antifolate-resistant parasites were used to infect a culture of HepG2 cells that were pre-incubated with compounds. Infected hepatocytes emit light due to the luciferase reaction. Assay results are presented as the percent inhibition of light emission compared to control. […]
- Assay type: functional
- assay_conditions: sporozoite, read-out: LUCIFERASE INFECTION ASSAY - IC90

compound | IC90
CN(C)c1ccc(-c2cc3c(cn2)nc(Nc2ccccc2)n3C)cc1 | 4.23 µM
COc1ccc2nc(C)cc(N3CCc4c(sc(N)c4C#N)C3)c2c1 | > 10 µM
CC(C)(C)c1cccc(Nc2ncc(C(=O)c3ccccc3)[nH]2)c1 | > 10.3 µM
COc1ccc(-n2cc(-c3ccccc3)c3c(NCc4cccnc4)ncnc32)cc1 | > 10 µM
C=CCN(c1ccc(C(=O)Nc2ccc(C(F)(F)F)cc2)cc1)S(C)(=O)=O | 7.12 µM
C(=C\c1cn2c(-c3cccnc3)cnc2cn1)/c1ccccc1 | > 11.1 µM
COc1cc(OC)nc(Nc2nc(C(N)C3CCCCC3)cs2)n1 (stereo not drawn) | > 9.44 µM
OCc1ccc(-c2cnc3cnc(-c4cccc(Cl)c4)cn23)cc1 | > 9.83 µM
Cc1cccc(-c2nc3c(c(SCCN4CCCC4)n2)COC(C)(C)C3)c1 | > 8.6 µM
Cc1cc(C(=O)N/N=C/c2ccc([N+](=O)[O-])s2)nn1-c1c(Cl)cc(Cl)cc1Cl | 4.83 µM
COc1ccc(CNC(=O)N2CCc3nc(NCc4cccc(Oc5ccccc5)c4)ncc3C2)cc1 | > 6.66 µM
COc1ccc(C(=O)C2CCN(C(=O)C3CC(=O)N(c4ccc(C)c(F)c4)C3)CC2)cc1 (stereo not drawn) | > 10 µM
CCN1C/C(=C/c2ccccc2OC(F)F)C(=O)/C(=C/c2ccccc2OC(F)F)C1 | > 10 µM
c1ccc(-c2cc3c(NCCCN4CCN(c5ncccn5)CC4)ncnc3s2)cc1 | 4.71 µM
Cc1cc(C(=O)NNC(=O)c2ccc3ccccc3n2)c2cnn(Cc3cccs3)c2n1 | 9.16 µM
CCCCc1ccc(C(=O)Nc2nc3ccc(C)cn3c2C(=O)NCCC)cc1 | 3.18 µM
CCN(CC)C(=O)COC(=O)c1ccc2c(c1)C(=O)N(CCC(C)C)C2=O | > 10 µM
Cc1nn2c(nc(Sc3nc4ccccc4o3)c3ccccc32)c1/C=N/NC(=O)c1cccc(S(=O)(=O)N2CCOCC2)c1 | > 10 µM
O=C(CSCCCN1CCN(c2cccc(Cl)c2)CC1)NNC(=O)Nc1cc(Cl)cc(Cl)c1 | > 6.22 µM
COc1cc(N2C(=O)C=CC2=O)cc(OC)c1OC | > 12.5 µM
CCCCc1[nH]nc2ccnc(-c3ccc(CO)cc3)c12 | > 10 µM
COc1ccc(CCNC(=O)c2ccc3cc[nH]c3c2)cc1 | > 11.2 µM
CN(C)Cc1ccc(CNc2ncnc3scc(-c4ccccc4)c23)cc1 | 2.66 µM
CCCn1c(N)c(C(=O)CSc2nnc(-c3ccccc3)c(-c3ccccc3)n2)c(=O)n(C)c1=O | > 10 µM
Cc1cccc(C(=O)Nc2ccccc2C(=O)OCC(=O)c2c[nH]c3ccccc23)c1 | > 10 µM
O=C1C(=O)N(Cc2ccc(F)cc2)c2c1cccc2C(F)(F)F | 6.88 µM
O=S(=O)(c1ccccc1)N1CN(c2ccc(N3CCOCC3)cc2)c2nc3ccccc3nc21 | > 10 µM
O=C(COc1ccccc1C(=O)NCc1ccccc1)NC(c1ccc(F)cc1)c1cccs1 (stereo not drawn) | > 10 µM
Oc1cccc(-c2cnc3cnc(-c4cccnc4)cn23)c1 | > 11.4 µM
CCn1nc(C)c(Br)c1C(=O)Sc1ccccc1Cl | > 9.17 µM
COc1ccc(-c2ccc(/C=N/Nc3ccc(F)cc3)s2)cc1 | 5.44 µM
O=C(Cc1cn2ccsc2n1)NNC(=O)c1cc(Cl)ccc1O | 0.414 µM
c1cc(CNc2ncnc3nc[nH]c23)cc(COCc2ccco2)c1 | > 10 µM
CC(=O)N(/N=C/c1ccc(C(F)(F)F)cc1)C1=NN(C(C)=O)C(c2ccc(C(F)(F)F)cc2)S1 (stereo not drawn) | > 6.57 µM
CCCc1nc(C)c(C(=O)Nc2nccn2Cc2ccccc2)s1 | > 10 µM
CC1=C(C(=O)OC(C)C)C(c2ccccc2)n2nc(-c3cccs3)nc2N1 (stereo not drawn) | > 10 µM
COc1ccc(C(C)C)cc1-c1cc(N2CCCC2CO)n2nccc2n1 (stereo not drawn) | 6.95 µM
O=C(Nc1ccccc1)c1ccc(CN2CCN(CCOc3ccccc3)CC2)cc1 | 1.96 µM
